Target: T1, human CD39 expressed on cells (human, UniProt P49961 1-510)
T1 sequence: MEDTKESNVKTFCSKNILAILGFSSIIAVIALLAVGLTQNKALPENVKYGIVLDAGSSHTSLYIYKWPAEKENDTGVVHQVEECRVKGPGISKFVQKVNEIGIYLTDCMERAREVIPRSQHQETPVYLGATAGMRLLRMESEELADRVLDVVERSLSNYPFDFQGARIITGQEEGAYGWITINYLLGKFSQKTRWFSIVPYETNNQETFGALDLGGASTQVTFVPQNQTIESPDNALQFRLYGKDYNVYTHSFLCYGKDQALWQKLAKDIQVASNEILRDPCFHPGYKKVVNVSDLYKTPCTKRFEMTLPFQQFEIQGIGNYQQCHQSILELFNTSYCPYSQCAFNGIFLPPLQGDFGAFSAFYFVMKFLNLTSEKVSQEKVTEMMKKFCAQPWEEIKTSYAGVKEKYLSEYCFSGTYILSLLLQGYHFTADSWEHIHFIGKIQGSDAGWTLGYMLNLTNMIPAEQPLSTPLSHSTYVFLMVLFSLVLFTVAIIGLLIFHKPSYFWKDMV
Experiment: cell-based or functional assay
Listed here: items and their measured % Inhibition of ATPase Activity in ARH-77 cells (antibody at 1200 ng/mL).
observable: % Inhibition of ATPase Activity in ARH-77 cells (antibody at 1200 ng/mL) (%)

anti-CD39 monoclonal antibody 5-13A (antibody, V domains shown, purified mouse hybridoma antibody, IgG2a isotype; also called R21-5-13A; R29-5-13A) VH: QVQLQQSGPELVKPGASVRISCKASGYTFTGYYVHWVKQRPGQGLEWIGWIYPGNVNTKYNEKFKAKATLTADKSSSTGYMQLSRLTSEDSAVYFCARSPYYGTTYYYTMDYWGQGTSVTVSS VL: EIVLTQSPAFMAASPGEKVTITCSVSLIISSRNLHWYQQKSETSPKPWIYGTSNLASGVPVRFSGSGSGTSYSLTISSMEAEDAATYYCQQWSDYPLTFGSGTKLEIK
-6.2
anti-CD39 monoclonal antibody 5-71A (antibody, V domains shown, purified mouse hybridoma antibody, IgG2a isotype; also called R21-5-71A; R29-5-71A) VH: DVQLVESGGGLVQPGGSRKLSCAASGFTFSSFGMHWVRQAPEKGLELVAYISSGSTIRYYSDTVKGRFTISRDNPKNTLFLQMTSLRSEDTAMYYCARFLYEGFRYGMDYWGQGTSVTVSS VL: DVLMTQTPLSLPVSLGDQASISCRSSQSIVHSNGNTYLEWYLQKPGQSPKLLIYKVSNRFSGVPDRFSGSGSGTDFTLKISRVEAEDLGIYYCFQGSHVPNTFGGGTKLEIK
3.6
anti-CD39 monoclonal antibody 9-8B (antibody, V domains shown, purified mouse hybridoma antibody, IgG2a isotype; also called R21-9-8B; R29-9-8B) VH: QIQLVQSGPELKKPGETVKISCKASGYTFTHYGMNWVKQAPGKGLKWMGWINTYTGELTYADDFKGRFAFSLETSASTAYLQINNLKNEDTATYFCARRAYYRYDYVMDYWGQGTSVTVSS VL: DIVMTQSQKFMSTSVGDRVSVTCKASHNVGTNVAWYQQKPGQSPKALIYSASYRYSGVPGRFTGSGSGTDFTLTISNVQSEDLAEYFCHQYNNYPYTFGGGTKLEIK
36.5
anti-CD39 monoclonal antibody 5-165C (antibody, V domains shown, purified mouse hybridoma antibody, IgG2a isotype; also called R21-5-165C; R29-5-165C) VH: EVQLVESGGDLVKPGGSLKLSCAAFGFTFSRYGMSWVRQTPDKRLEWVATITSGGIYTYYPDSVKGRFTISRDNAKNTLYLQMSSLKSEETAMYYCARHGQFGDYYGMDYWGQGTSVTVSS VL: DVVMTQTPLSLPVSLGDQASISCRSSQSLLHSNGNTYLHWYLQKPGQSPKLLIYKVSNRFSGVPDRFSGSGSGTDFTLKISRVEAEDLGVYFCSQSTHVPYTFGGGTKLEIK
-2.5
